# Test system: LKB1
# Construct: gene STK11
# Condition label: concentration: 1 μM,replicates: in singlicate; n = 1;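 also: KINOMEscan kinase panel screen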
Result type: %Inh

smiles_entry=CNC(=O)c1ccccc1Sc1ccc2c(/C=C/c3ccccn3)n[nH]c2c1 result_type=%Inh recorded_measurement=0%
smiles_entry=Cc1cc2cn[nH]c2cc1-c1cccc2c(N)c(C(N)=O)nnc12 result_type=%Inh recorded_measurement=0%

input: Please look up its %Inh: Cl.Oc1cc(-c2nc(-c3ccccc3)[nH]c2-c2ccncc2)ccc1Cl
output: 30%

----------
Below is a list of entries, each paired with its recorded %Inh value.
# System: MAP3K3
# Condition label: concentration: 1 μM,replicates: in singlicate; n = 1
Just the number in %, nothing appended.

smiles_entry=Cl.Cl.NC[C@H](CC1CCCCC1)NC(=O)c1cc(Br)c(-c2ccnc3[nH]ccc23)s1 display_unit=% recorded_measurement=0
smiles_entry=Cc1occc1-c1nc(N)c(OC[C@@H](N)Cc2c[nH]c3ccccc23)cc1-c1cc2c(C)n[nH]c2cn1 display_unit=% recorded_measurement=99.1
smiles_entry=C=CC(=O)Nc1cc2c(Nc3ccc(F)c(Cl)c3)ncnc2cc1OCCCN1CCOCC1 display_unit=% recorded_measurement=0
smiles_entry=O=C(NCCNc1ccnc(NCc2ccc(F)cc2)n1)c1cc2ccccc2s1 display_unit=% recorded_measurement=0
smiles_entry=Cl.Oc1cc(-c2nc(-c3ccccc3)[nH]c2-c2ccncc2)ccc1Cl display_unit=% recorded_measurement=38

In the following, a different compound is considered.
input: Entry Nc1nc(Nc2ccccc2)cc(-c2ccc3c(N)n[nH]c3c2)n1 , system MAP3K3: what %Inh was measured?
output: 16

----------
Below is a list of entries, each paired with its recorded %Inh value.
# Tested on: MAP4K4
# Condition label: concentration: 1 μM,replicates: in singlicate; n = 1
Answer with the value and then the unit.

molecule="Cc1occc1-c1nc(N)c(OC[C@@H](N)Cc2c[nH]c3ccccc23)cc1-c1cc2c(C)n[nH]c2cn1 [GSK1660450]" experimental_system=MAP4K4 recorded_measurement=99.3%
molecule="CN(C)CCOc1ccc(-c2cc(-c3c[nH]nc3-c3ccccn3)ccn2)cc1 [GW835314]" experimental_system=MAP4K4 recorded_measurement=80%

input: Entry Cc1cc(C(=O)Nc2ccc(Oc3ccc4nc(NC(=O)C5CC5)cn4n3)cc2)nn1-c1ccccc1 , system MAP4K4: what %Inh was measured?
output: 0%

input: Another molecule: Cl.Oc1cc(-c2nc(-c3ccccc3)[nH]c2-c2ccncc2)ccc1Cl [SB-386023]
output: 19%

----------
# System: CSNK1A1
# Condition label: concentration: 1 μM,replicates: in singlicate; n = 1
Result type: %Inh (%)
Just the number in %, nothing appended.

Some entries whose results are on file:
smiles_entry=CCN(CC)CCOc1ccc(Nc2ncc3cc(-c4c(Cl)cccc4Cl)c(=O)n(C)c3n2)cc1 recorded_measurement=13
smiles_entry=C=CC(=O)Nc1cc2c(Nc3ccc(F)c(Cl)c3)ncnc2cc1OCCCN1CCOCC1 recorded_measurement=0
smiles_entry=CC(C)Nc1cc(-c2ccc3c(N)n[nH]c3c2)nc(N)n1 recorded_measurement=18
smiles_entry=CN(C)CCOc1ccc(-c2cc(-c3c[nH]nc3-c3ccccn3)ccn2)cc1 recorded_measurement=11
smiles_entry=Nc1nc(Nc2ccccc2)cc(-c2ccc3c(N)n[nH]c3c2)n1 recorded_measurement=21
smiles_entry=CCN(CC)CCCCNc1ncc2cc(-c3c(Cl)cccc3Cl)c(NC(=O)NC(C)(C)C)nc2n1 recorded_measurement=30

In the following, a different compound is considered.
input: Please look up its %Inh: CCn1c(-c2nonc2N)nc2c(C#CC(C)(C)O)nc(OCCN)cc21.Cl.Cl
output: 0
